In this section, each of the molecules is paired with its reported relative β-galactosidase activity, inducer Ns.
System: tetA promoter (PtetA)-lacZ reporter in E. coli KM3
Type: cell-based
Conditions: Table 6, reverse repressor hits; nicosulfuron, same plate assay format as Table 4
Reply briefly: the number, and no unit.

Example cases with answers are listed next.
>  <Molecule>
L1-34: library L1 reverse repressor hit (SEQ ID NO: 1206-1213) (protein, rSuR L1-34) MGSRLDKSKVINSALELLNEVGIEGLTTRKLAQKLGVEQPTLYWHVKNKRALLDALAIEMADRHNTHFCPLEGESWQDFLRNAARSMRCALLSHRDGAKVYLGTARTEKQYETTENVLAFLCQQGFSLENALYAVRAVPRFTLGCVLLDQERQVAKEERETPTTDSMPPLLRQARELTDHQGAEPAFLFGLELIICGLEKQLKCESGS

>  <Numeric result>
2.91

$$$$
>  <Molecule>
L1-41: library L1 reverse repressor hit (SEQ ID NO: 1206-1213) (protein, rSuR L1-41) MGSRLDKSKVINSALELLNEVGIEGLTTRKLAQKLGVEQPTLYWHVKNKRALLDALAIEMLDRNQTHFCPLEGESWQDFLRNNAKSWRCALLSHRDGAKVMLGTRNTEKQYETAENGLAFLCQQGFSLENALYACRAVWTFTLGCVLDDQETQVAKEERETPTSDSMPPLLRQAMELKDHQGAEPAFLFGLELIICGLEKQLKCESGS

>  <Numeric result>
2.75

$$$$
>  <Molecule>
L1-25: library L1 reverse repressor hit (SEQ ID NO: 1206-1213) (protein, rSuR L1-25) MGSRLDKSKVINSALELLNEVGIEGLTTRKLAQKLGVEQPTLYWHVKNKRALLDALAIEMLDRHATHFCPLEGESWQDFLRNTAKSMRCALLSHRDGAKVLLGTATTEKQYETLENLLAFLYQQGFSLENALYAWQAVWRFTLGCVLIDQETQVAKEERETPTTDSMPPLLRQAVELKDHQGAEPAFLFGLELIICGLEKQLKCETGS

>  <Numeric result>
1.21

$$$$
>  <Molecule>
L1-18: library L1 reverse repressor hit (SEQ ID NO: 1206-1213) (protein, rSuR L1-18) MGSRLDKSKVINSALELLNEVGIEGLTTRKLAQKLGVEQPTLYWHVKNKRALLDALAIEMLDRHLTHFCPLEGESWQDFLRNNAKSMRCALLSHRDGAKVWLGTGFTEKQYETKENRLAFLCQQGFSLENALYAIRAVSRFTLGCVLQDQEPQVAKEERETPTTDSMPPLLRQAVELFDHQGAEPAFLFGLELIICGLEKQLKCESES

>  <Numeric result>
1.44

$$$$
>  <Molecule>
L1-36: library L1 reverse repressor hit (SEQ ID NO: 1206-1213) (protein, rSuR L1-36) MGSRLDKSKVINSALELLNEVGIEGLTTRKLAQKLGVEQPTLYWHVKNKRALLDALAIEMADRHHTHFCPLEGESWQDFLRNAAKSMRCALLSHRDGAKVRLGTAWTEKQYETHENVLAFLCQQGFSLENALYALKAVSGFTLGCVLKDQEMQVAKEERETPTTDSMPPLLRQATELVDHQGAEPAFLFGLELIICGLEKQLKCESGS

>  <Numeric result>
1.81

$$$$
>  <Molecule>
L1-33: library L1 reverse repressor hit (SEQ ID NO: 1206-1213) (protein, rSuR L1-33) MGSRLDKSKVINSALELLNEVGIEGLTTRKLAQKLGVEQPTLYWHVKNKRALLDALAIEMLDRHATHFCPLEGESWQDFLRNNAKSMRCALLSHRDGAKVQLGTAATEKQYETLENKLAFLCQQGFSLENALYAHSAVTQFTLGCVLRDQEGQVAKEERETPTTDSMPPLLRQARELRDHQGAEPAFLFGLELIICGLEKQLKCESGS

>  <Numeric result>
5.34

$$$$
>  <Molecule>
L1-21: library L1 reverse repressor hit (SEQ ID NO: 1206-1213) (protein, rSuR L1-21) MGSRLDKSKVINSALELLNEVGIEGLTTRKLAQKLGVEQPTLYWHVKNKRALLDALAIEMLDRHATHFCPLEGESWQDFLRNNAKSFRCALLSHRDGAKVCLGTAGTEKQYETLENCLAFLCQQGFSLENALYARSAVVCFTLGCVLFDQEMQVAKEERETPTTDSMPPLLRQAAELLDHQGAEPAFLFGLELIICGLEKQLKCESGS

>  <Numeric result>
2.74

$$$$

Below: the item to evaluate.
Return reported relative β-galactosidase activity, inducer Ns; argument: L1-39: library L1 reverse repressor hit (SEQ ID NO: 1206-1213) (protein, rSuR L1-39) MGSRLDKSKVINSALELLNEVGIEGLTTRKLAQKLGVEQPTLYWHVKNKRALLDALAIEMMDRHQTHFCPLEGESWQDFLRNTAKSYRCALLSHRDGAKVILGTRWTEKQYETRENVLAFLCQQGFSLENALYAWAAVGPFTLGCVLRDQERQVAKEERETPTTDSMPPLLRQALELMDHQGAEPAFLFGLELIICGLEKQLKCESGS 3.03
